The entries below are paired with their reported TCF/Wnt firefly luciferase reporter signal.
Test system: SW480
EXPERIMENTAL_DETAILS: TCF/Wnt firefly luciferase reporter signal relative to plate median (fraction of plate median); higher = higher Wnt reporter signal
DETAILS: 5 µM; treatment time 24 h; reporter: 7TFP
READOUT_LABEL: TCF/Wnt firefly luciferase reporter signal

{"COMPOUND": "C/C=C(/C(=C/C)c1ccc(O)cc1)c1ccc(O)cc1", "REPORTED_VALUE": 1.09}
{"COMPOUND": "CC1(C)O[C@@H]2C[C@H]3[C@@H]4CCC5=CC(=O)C=C[C@]5(C)[C@H]4[C@@H](O)C[C@]3(C)[C@]2(C(=O)CO)O1", "REPORTED_VALUE": 0.976}
{"COMPOUND": "O=C1c2c(O)ccc(O)c2C(=O)c2c(NCCNCCO)ccc(NCCNCCO)c21", "REPORTED_VALUE": 0.436}
{"COMPOUND": "CC(=O)O[C@H]1C[C@@H](O)C(C)(C)[C@@H]2C[C@@H](OC(C)=O)[C@]3(C)[C@H](CC[C@@]4(C)[C@@H](c5ccoc5)OC(=O)[C@H]5O[C@@]534)[C@@]12C", "REPORTED_VALUE": 0.978}
{"COMPOUND": "C[C@H]1O[C@@H](O[C@H]2[C@@H](O)C[C@H](O[C@H]3[C@@H](O)C[C@H](O[C@H]4CC[C@@]5(C)[C@H](CC[C@@H]6[C@@H]5C[C@@H](O)[C@]5(C)[C@@H](C7=CC(=O)OC7)CC[C@]65O)C4)O[C@@H]3C)O[C@@H]2C)C[C@H](O)[C@@H]1O", "REPORTED_VALUE": 0.221}
{"COMPOUND": "CNCCC(Oc1ccc(C(F)(F)F)cc1)c1ccccc1 (stereo unspecified)", "REPORTED_VALUE": 0.993}
{"COMPOUND": "CC(Cc1cccc(C(F)(F)F)c1)NCCOC(=O)c1ccccc1 (stereo unspecified)", "REPORTED_VALUE": 1.14}
{"COMPOUND": "CC(=O)Nc1ccc(O)cc1", "REPORTED_VALUE": 1.05}
{"COMPOUND": "CC(=O)c1ccc2c(c1)N(CCCN(C)C)c1ccccc1S2", "REPORTED_VALUE": 0.913}
{"COMPOUND": "C#C[C@]1(O)CC[C@H]2[C@@H]3CCC4=C(CCC(=O)C4)[C@H]3CC[C@@]21C", "REPORTED_VALUE": 1.07}
{"COMPOUND": "CC(=O)OCC(=O)[C@@]1(O)CC[C@H]2[C@@H]3C[C@H](C)C4=CC(=O)C=C[C@]4(C)[C@H]3[C@@H](O)C[C@@]21C [6alpha-METHYLPREDNISOLONE ACETATE]", "REPORTED_VALUE": 0.937}
{"COMPOUND": "CC(NCCC(c1ccccc1)c1ccccc1)c1ccccc1 (stereo unspecified)", "REPORTED_VALUE": 0.92}
{"COMPOUND": "CS(C)(=O)=O", "REPORTED_VALUE": 1.05}
{"COMPOUND": "O=C(O)c1ccccc1", "REPORTED_VALUE": 0.951}
{"COMPOUND": "CC1(C)[C@@H](O[C@H]2O[C@H](C(=O)O)[C@@H](O)[C@H](O)[C@H]2O[C@@H]2O[C@H](C(=O)O)[C@@H](O)[C@H](O)[C@H]2O)CC[C@]2(C)[C@H]3C(=O)C=C4[C@@H]5C[C@@](C)(C(=O)O)CC[C@]5(C)CC[C@@]4(C)[C@]3(C)CC[C@@H]12", "REPORTED_VALUE": 1.16}
{"COMPOUND": "CC(=O)OC[C@@]1(O)C[C@@]23CC[C@@H]4c5ccoc5CC[C@@]4(C)[C@@H]2CC[C@@H]1C3", "REPORTED_VALUE": 1.16}

Data credit: the supplement of paper PMC6522484
